experiment: Elimination half life in Sprague-Dawley rat at 100 mg/kg, po; type: ADME, organism-based; design: dose 100 mg/kg, route oral; conditions: in vivo
Experimental Endpoint: half-life (h)
Expressed in h, but write only the number.

// query half-life value for entry "CC(C)=CCC/C(C)=C/CC/C(C)=C/CSc1ccccc1C(N)=O"
5.23

###

assay: AUC (0 to infinity) in Sprague-Dawley rat at 100 mg/kg, po; assay type: ADME, organism-based; design: time infinity, dose 100 mg/kg, route oral; conditions: plasma
Experimental Endpoint: AUC(0-inf) (ng·h/mL)
Write down the numeric answer in ng·h/mL and omit the unit.

Name the reported AUC(0-inf) value associated with the molecule "CC(C)=CCC/C(C)=C/CC/C(C)=C/CSc1ccccc1C(N)=O"
1810

###

So I've got a bunch of molecules here, and I need their inhibition values.
experiment: Effect on Ras signaling in human U87 cells assessed as inhibition of NRas-GTP level at 50 uM after 24 hrs by immunoblot method; assay type: functional, cell-based; conditions: U-87MG ATCC
Write the answer as a number in %, unit excluded.

Report inhibition for "COCOC(=O)c1ccccc1SC/C=C(\C)CC/C=C(\C)CCC=C(C)C" please.
5.1

inhibition lookup needed for "CNC(=O)c1ccccc1SC/C=C(\C)CC/C=C(\C)CCC=C(C)C" , thanks.
22.5

Form field: reported inhibition of "COC(=O)c1ccccc1SC/C=C(\C)CC/C=C(\C)CCC=C(C)C"
18.7

Entry "CC(C)=CCC/C(C)=C/CC/C(C)=C/CSc1ccccc1C(=O)N(C)C" has what inhibition?
41

Record request: inhibition value, item "CC(C)=CCC/C(C)=C/CC/C(C)=C/CSc1ccccc1C(N)=O"
37.3

###

assay: AUC (0 to infinity) in Sprague-Dawley rat at 40 mg/kg, po; format: ADME, organism-based; set-up: time infinity, dose 40 mg/kg, route oral; details: plasma
Experimental Endpoint: AUC(0-inf) (ng·h/mL)
Write the value in ng·h/mL as a bare number.

Entry "CC(C)=CCC/C(C)=C/CC/C(C)=C/CSc1ccccc1C(=O)O" : reported AUC(0-inf) = ?
6210

###

assay: Cmax in Sprague-Dawley rat at 40 mg/kg, po; format: ADME, organism-based; set-up: dose 40 mg/kg, route oral; details: in vivo
Experimental Endpoint: Cmax (ng/mL)
Please respond with the number in ng/mL and leave the unit unwritten.

What value of Cmax has been reported for the following compound? "CC(C)=CCC/C(C)=C/CC/C(C)=C/CSc1ccccc1C(=O)O"
2160

###

assay: Elimination half life in Sprague-Dawley rat at 40 mg/kg, po; type: ADME, organism-based; parameters: dose 40 mg/kg, route oral; conditions: in vivo
Experimental Endpoint: half-life (h)
Numbers only; they are read as h.

Item under review: CC(C)=CCC/C(C)=C/CC/C(C)=C/CSc1ccccc1C(=O)O [SALIRASIB] . Reported half-life?
2.36
